molecular target: UniProt:P17931
Sequence (P17931 whole entry): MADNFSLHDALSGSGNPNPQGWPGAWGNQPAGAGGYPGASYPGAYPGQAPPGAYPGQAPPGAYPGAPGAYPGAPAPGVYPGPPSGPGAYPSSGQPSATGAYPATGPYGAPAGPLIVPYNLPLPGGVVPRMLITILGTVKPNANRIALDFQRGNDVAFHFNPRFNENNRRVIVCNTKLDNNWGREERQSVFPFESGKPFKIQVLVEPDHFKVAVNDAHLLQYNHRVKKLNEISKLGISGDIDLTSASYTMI
Please respond with reported log10 of IC50 for every item in the list.
Heads up, the numbers here are log10 of IC50 in nM units.

Consider the following illustrative entries.
molecule | measured value
CC(=O)O[C@@H]1[C@@H](n2cc(-c3cc(F)c(F)c(F)c3)nn2)[C@@H](O)[C@@H](CO)O[C@H]1C(=O)N(Cc1nccn1C)[C@H]1CCCC[C@@H]1O | 2.33
CO[C@@H]1[C@@H](n2cc(-c3cc(F)c(F)c(F)c3)nn2)[C@@H](O)[C@@H](CO)O[C@H]1C(=O)N(c1cc2sc(C)nc2cc1C)[C@H]1CCCC[C@@H]1O | 1.75
CO[C@@H]1[C@@H](n2cc(-c3ccc(C)c(F)c3)nn2)[C@@H](O)[C@@H](CO)O[C@H]1C(=O)N(c1cc(Cl)cc(C#N)c1)[C@H]1CCCC[C@@H]1O | 1.26
CO[C@@H]1[C@@H](n2cc(-c3cc(F)cc(F)c3)nn2)[C@@H](O)[C@@H](CO)O[C@H]1C(=O)N(c1cc(Cl)cc(C#N)c1)[C@H]1CCCC[C@@H]1O | 1.40

INPUT: State the recorded log10 of IC50 for this entry: `CO[C@@H]1[C@@H](n2cc(-c3cc(C)cc(F)c3)nn2)[C@@H](O)[C@@H](CO)O[C@H]1C(=O)N(c1cc(Cl)cc(C#N)c1)[C@H]1CCCC[C@@H]1O`
OUTPUT: 1.23

* * *

target: human Gal-1 (hGal-1); assay: Competitive binding assay: biotinylated hGal-1 binding to microplate-adsorbed asialofetuin (ASF); conditions: Activity on hGal-1; binding of biotinylated hGal-1 to ASF-coated plates; mean values
Sequence (P09382 2-135 limits assumed): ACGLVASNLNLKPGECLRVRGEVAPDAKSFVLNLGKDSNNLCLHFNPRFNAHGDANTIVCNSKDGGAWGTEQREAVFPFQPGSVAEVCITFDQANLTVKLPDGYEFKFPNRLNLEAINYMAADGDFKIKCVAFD
Please respond with reported IC50 for every item in the list.
Give bare numbers, in µM.

compound | IC50 / µM
CO[C@@H]1[C@@H](n2cc(-c3cc(F)c(F)c(Cl)c3)nn2)[C@@H](O)[C@@H](CO)O[C@H]1C(=O)N(c1cc(Cl)cc(C#N)c1)[C@H]1CCCC[C@@H]1O [Example 132] | 0.14
O=C([C@@H]1O[C@H](CO)[C@H](O)[C@H](n2cc(-c3cc(F)c(Br)c(F)c3)nn2)[C@H]1O)N(Cc1ccccc1C(F)(F)F)[C@H]1CCCC[C@@H]1O [Example 69] | 2.57

Quick batch: IC50 for everything below.
1. CO[C@@H]1[C@@H](n2cc(-c3cc(F)c(C)c(F)c3)nn2)[C@@H](O)[C@@H](CO)O[C@H]1C(=O)N(c1cc(F)cc(C#N)c1)[C@H]1CCCC[C@@H]1O [Example 161]
2. O=C([C@@H]1O[C@H](CO)[C@H](O)[C@H](n2cc(-c3cc(F)c(F)c(F)c3)nn2)[C@H]1O)N(Cc1cncnc1C(F)(F)F)[C@H]1CCCC[C@@H]1O [Example 27]
3. CO[C@@H]1[C@@H](n2cc(-c3cc(F)c(Br)c(F)c3)nn2)[C@@H](O)[C@@H](CO)O[C@H]1C(=O)N(c1ccc(F)c(F)c1)[C@H]1CCCC[C@@H]1O [Example 152]

OUTPUT:
2.17
3.2
3.14

* * *

Please respond with reported pIC50 for every item in the list.
molecular target: human Gal-1 (hGal-1); test: Competitive binding assay: biotinylated hGal-1 binding to microplate-adsorbed asialofetuin (ASF); conditions: Activity on hGal-1; binding of biotinylated hGal-1 to ASF-coated plates; mean values
Answers are plain numbers, as −log10 of the molar value.

Consider the following illustrative entries.
compound | pIC50
CO[C@@H]1[C@@H](n2cc(-c3cc(F)c(Cl)c(Cl)c3)nn2)[C@@H](O)[C@@H](CO)O[C@H]1C(=O)N(c1ccc2ncsc2c1)[C@H]1CCCC[C@@H]1O [Example 168] | 6.17
CO[C@@H]1[C@@H](n2cc(-c3cc(F)cc(F)c3)nn2)[C@@H](O)[C@@H](CO)O[C@H]1C(=O)N(c1cc(C)cc(Cl)c1)[C@H]1CCCC[C@@H]1O [Example 83] | 5.63
CO[C@@H]1[C@@H](n2cc(-c3cc(F)c(F)c(F)c3)nn2)[C@@H](O)[C@@H](CO)O[C@H]1C(=O)N(Cc1sccc1C)[C@H]1CCCC[C@@H]1O [Example 33] | 6.02
CO[C@@H]1[C@@H](n2cc(-c3cc(F)c(F)c(F)c3)nn2)[C@@H](O)[C@@H](CO)O[C@H]1C(=O)N(Cc1ccccc1C(F)(F)F)[C@H]1CCCC[C@@H]1O [Example 11] | 6.30

INPUT: State the recorded pIC50 for this entry: CO[C@@H]1[C@@H](n2cc(-c3cc(F)c(F)c(F)c3)nn2)[C@@H](O)[C@@H](CO)O[C@H]1C(=O)N(Cc1sccc1C)[C@H]1CCCC[C@@H]1O [Example 34]
OUTPUT: 6.06
